# TARGET OR SYSTEM: T1, UNK ZnF1-6 (called full-length) (human, UniProt Q9C0B0 30-357)
# T1 sequence: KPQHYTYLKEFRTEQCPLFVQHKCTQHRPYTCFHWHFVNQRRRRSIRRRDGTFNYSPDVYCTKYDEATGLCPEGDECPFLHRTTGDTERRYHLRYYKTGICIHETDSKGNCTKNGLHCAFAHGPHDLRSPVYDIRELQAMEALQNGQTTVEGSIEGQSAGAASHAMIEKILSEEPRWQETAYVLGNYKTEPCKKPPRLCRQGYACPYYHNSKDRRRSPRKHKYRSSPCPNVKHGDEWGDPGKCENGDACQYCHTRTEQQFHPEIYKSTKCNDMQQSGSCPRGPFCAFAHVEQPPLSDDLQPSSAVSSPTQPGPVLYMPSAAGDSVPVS
# TEST SUMMARY: nsRBNS (natural sequence RNA bind-n-seq); RBNS binding buffer (assumed for nsRBNS): 25 mM Tris pH 7.5, 150 mM KCl, 3 mM MgCl2, 0.01% Triton X-100, 500 ug/ml BSA, 20 U/ml SUPERase-In, 4 C; UNK is unkempt and MSI1 is Musashi-1; names of the RNAs are library labels; protein concentration not given here; high values mean tight binding
Whole data set: some 5,800 sequences, median “enrichment r” near 0.68, cut for the highest 2% near 11. Many of the other results were omitted from the sample, so the highest values are more common in it than they were.
Please respond with reported binding signal for every item in the list.
// note: answer is a bare numeric in enrichment R

So what does the record say about binding signal for ENSG00000198589:be:win_9101|3pUTR|ENSG00000198589|bound_else_gene|NA|bound_elsewhere_windowed (ssRNA) RNA: GGGAGUUCUACAGUCCGACGAUCUUCAAGCAUGUUUUAGACCUAGAAAAGUAUGGUUUGGGGGAGGCUAUUUUAUUGUGUGGUUAGCACAAGGAAUCUAAUUUAUAGCAAGUGUGAAAUAGUUACCAUUUUUUCCUGAUCUGUCAACAGAGGAUUGAGCAUCA ?
2.96

Could you tell me which binding signal is on file for chr2:27433287:27433389:+|CDS|ENSG00000115216|unk|FALSE|unique (ssRNA) RNA: GGGAGUUCUACAGUCCGACGAUCUUCCAGCAUGUCGGAGGGGGAGUCCCAGACAGUACUUAGCAGUGGCUCAGACCCAAAGGUAGAAUCCUCAUCUUCAGCUCCUGGCCUGACAUCAGUGUCACCUCCUGUGACCUCCACAACCAACAGAGGAUUGAGCAUCA ?
0.848

Requested read-out: binding signal. Entry: chr1:229632307:229632408:+|CDS|ENSG00000135763|unk|FALSE|bound_elsewhere (ssRNA) RNA: GGGAGUUCUACAGUCCGACGAUCAUUUUAUAAGAAAAAGCUUGAACUGAAGGAAGAUAUUGUUGAAAGGCUUUGGAUCUAUAUAGAUAACAUUUUACAUAGCAGAAAAUUGCAGAAUCUCCUCAAGAAUGGAAAGACCAUUAACAACAGAGGAUUGAGCAUCA
2.37

Query: binding signal; subject: chr6:105096826:105097152:-|3pUTR|ENSG00000112276|msi1|FALSE|unique (ssRNA) RNA: GGGAGUUCUACAGUCCGACGAUCACUUGCAACCUAGUUUUAAAAUACAUGAGGAUUUUAUGAAAGCUUUAUACAGACAUUUAUAGGAAACUCAUUCUUUGAUUUUAGGUGCCAUUUAAAUUGAUAACACUUACUUUAUAAAAACAACAGAGGAUUGAGCAUCA
1.57

Consider the binder ENSG00000104805:stop:overlap|stop_codon|ENSG00000104805|stop_codon|NA|stop_codon (ssRNA) RNA: GGGAGUUCUACAGUCCGACGAUCAGUUGAAGGAGGUGUGGGAGGAGCUGGAUGGACUGGACCCCAACAGCAUCCCAAAGUGCUAGGAUUACAGGCGUGAGUCACUGCGCCCGGCCUCGAAAGCCCUUUCUCUAUGGUGGAUCACAACAGAGGAUUGAGCAUCA and give its measured binding signal.
0.682

Look at this binder and give its reported binding signal. chr7:158693335:158693439:-|CDS|ENSG00000146918|unk|total|mutant (ssRNA) RNA: GGGAGUUCUACAGUCCGACGAUCAAGGAAACAGAAAGAAGAAUUAUGGCAAAGGCUGAAGAAUUUAUUGACAGAUGUGUUGUCCGAAAGCCCAGUGGAUGGGUGGCAGGCCGUGGAAGCCCAGGGUGAAGACAAUAUGGAAACCAACAGAGGAUUGAGCAUCA
1

Which binding signal is listed for chr10:100209595:100209696:-|CDS|ENSG00000213341|unk|FALSE|unique (ssRNA) RNA: GGGAGUUCUACAGUCCGACGAUCACUUCUUUCAGAGACAGGAAUUUCUCUGGAUCCUCGGAAACCAGCCUCUCAAUGUGUUCUAGAUGGAGUUGUAAGAAAAUUAAUUAUAAUAUCCCUAGAGUAUGUGAAAUCUAGAGGGAUCAACAGAGGAUUGAGCAUCA ?
0.651

Report binding signal for chr6:37331633:37331734:+|3pUTR|ENSG00000065491|unk|FALSE|unique (ssRNA) RNA: GGGAGUUCUACAGUCCGACGAUCCCGUUCCCCUUCUGCCCCAGUCUGAGCCAGUGAGGGGUAGCUUUUUAAAACCAUUAUUCUAGAUGGAGGAGGCACUGAUGCUUGUAACUCUGGAAAGAGGCCUACACCCAAGGGCUAGGACAACAGAGGAUUGAGCAUCA please.
2.05

Please report the recorded binding signal for chr8:73046310:73046411:+|3pUTR|ENSG00000147601|msi1|FALSE|unique (ssRNA) RNA: GGGAGUUCUACAGUCCGACGAUCUUGUAUUCUUUAAGAACCUUAUUUUGAUAAAAUGUAAAUUUGUUGAACCCUGCCACAUUUAGUAUCCCCACCCCCAAAUCCUGUUCCAAUGAAAAAAUUAAAACCUGAUACGAAAAAAAACAACAGAGGAUUGAGCAUCA .
2.26

Which measured binding signal value corresponds to chr11:22846921:22847509:-|three_prime_utr|ENSG00000255359|control|control|control (ssRNA) RNA: GGGAGUUCUACAGUCCGACGAUCCUCCACCAUUUCGGAAAAAUAAACACAGUGCAAGUAUUUAAUAUCCAAGCUACAGGCUCUAGAAUUUUAUUAAAUGCCAUCUCUCACUACCAUAUUUUUCUUUCCUGUGGUAAACUUGAACAACAGAGGAUUGAGCAUCA ?
0.713

What value of measured binding signal is listed for chr2:150470103:150470218:-|CDS|ENSG00000115963|unk|total|mutant (ssRNA) RNA: GGGAGUUCUACAGUCCGACGAUCAUGGCCAAACAGAUUGGAGCAGCUACUUAUAUCGAAUGCUCAGCUUUACAGUCGGAAAACCGCGUCAGAGACAUUUUUCACGUUGCCACCUUGGCAUGUGUAAAUAAGACAAAUAAAAACCAACAGAGGAUUGAGCAUCA ?
0.384

# get_value(readout='binding signal', item= chr19:582815:582998:+|CDS_3pUTR|ENSG00000172270|msi1_unk|total|mutant (ssRNA) RNA: GGGAGUUCUACAGUCCGACGAUCUCAUACACUUCCUUCUUUUUUAAAAAAGUUGGGUUUUCUCCAUUCAGGAUUCUGUUCCUCCGGUUUUUUUCCUUCUGAAGUGUUUCACGAGAGCCCGGGAGCUGCUGCCCUGCGGCCCCGCAACAGAGGAUUGAGCAUCA )
0.504

I am curious: what binding signal value has been reported for chr4:150908776:150908877:-|CDS|ENSG00000198589|msi1|FALSE|bound_elsewhere (ssRNA) RNA: GGGAGUUCUACAGUCCGACGAUCGUUGAUUUGUACUUAGAUUCUCUUUGUGGCAUACUAUUUAACUGUUUUUAAUUAAUUCUUAGGGUACAUUUAAAUUCAAAGCAGAAAGCGACCUUUUCCUUGCUGAGCAUCACAAACUUUCAACAGAGGAUUGAGCAUCA ?
3.69

Sourced from paper PMC12136788
